# EXPERIMENTAL_SYSTEM: Glucocorticoid receptor (Homo sapiens)
# PROTOCOL_SUMMARY: qHTS assay to identify small molecule agonists of the glucocorticoid receptor (GR) signaling pathway (AID 720691)
# ASSAY_SETUP: GR-bla HeLa, beta-lactamase reporter ratio, 18 h
Results filed as inconclusive are left out. Activity calls are given as the source filed them. Calls come from the whole dose curve; as a rule, active = well fitted activation curve with a large enough effect in the signal ratio in the repeat runs (not every such curve was filed as active); inconclusive = weak or mixed curves, or effect the other way; inactive = no such curve, though single readings can be large or run the other way; the % refers to the signal ratio.
Output constraint: value belongs to y = active, n = inactive

Write down the call the test reported for this compound. Item: `CCC(C)(C)OC(=O)N[C@@H](Cc1c[nH]c2ccccc12)C(=O)N[C@@H](CCSC)C(=O)N[C@@H](CC(=O)O)C(=O)N[C@@H](Cc1ccccc1)C(N)=O`
n

Write down the call the test reported for this compound. Item: C[Se]CCC(N)C(=O)O (stereo unspecified)
n

Write down the call the test reported for this compound. Item: CC(C(=O)O)c1ccc(N2Cc3ccccc3C2=O)cc1 (stereo unspecified)
n

Write down the call the test reported for this compound. Item: `CCOC(=O)[C@@H](N)CS`
n

Write down the call the test reported for this compound. Item: `O=P(O)(O)C(Sc1ccc(Cl)cc1)P(=O)(O)O`
n

Write down the call the test reported for this compound. Item: `CN1CCN(CCCN2c3ccccc3Sc3ccccc32)CC1`
n

Write down the call the test reported for this compound. Item: `NCc1ccccc1CC(=O)N[C@@H]1C(=O)N2C(C(=O)O)=C(CSc3nnnn3CC(=O)O)CS[C@H]12`
n

Write down the call the test reported for this compound. Item: `COc1ccc(C[C@@H](C)NC[C@H](O)c2ccc(O)c(NC=O)c2)cc1`
n

Write down the call the test reported for this compound. Item: `CNC(=O)[C@H](Cc1c[nH]c2ccccc12)NC(=O)[C@@H](CC(=O)NO)CC(C)C`
y

Write down the call the test reported for this compound. Item: `O=C(Nc1ccc(/C=C/c2ccc(NC(=O)c3cc(S(=O)(=O)O)c4cccnc4c3O)cc2S(=O)(=O)O)c(S(=O)(=O)O)c1)c1cc(S(=O)(=O)O)c2cccnc2c1O`
n

Write down the call the test reported for this compound. Item: CC(CN(C)C)CN1c2ccccc2Sc2ccc(C(F)(F)F)cc21 (stereo unspecified)
n

Write down the call the test reported for this compound. Item: `CC(=O)c1ccc2c(c1)N(CCCN1CCN(CCO)CC1)c1ccccc1S2`
n

Write down the call the test reported for this compound. Item: COc1ccc(C2(C#N)CCC(C(=O)O)CC2)cc1OC1CCCC1 (stereo unspecified)
n

Write down the call the test reported for this compound. Item: `CC(C)(C)NC[C@H](O)COc1ccccc1C1CCCC1`
n

Write down the call the test reported for this compound. Item: `CCCCCCCCCCCCCCCCCCOP(=O)([O-])OC1CC[N+](C)(C)CC1`
n

Write down the call the test reported for this compound. Item: `COc1ccc(C(=O)CCC(=O)O)c2ccccc12`
n

Write down the call the test reported for this compound. Item: `C[C@H](O)[C@H](O)[C@H]1CNc2nc(N)[nH]c(=O)c2N1`
n

Write down the call the test reported for this compound. Item: `CN1CCN(C2=Nc3ccccc3Cc3ccccc32)CC1`
n

Write down the call the test reported for this compound. Item: NC(=O)OCC(O)COc1ccc(Cl)cc1 (stereo unspecified)
n

Write down the call the test reported for this compound. Item: `CO/N=C(\C(=O)N[C@@H]1C(=O)N2C(C(=O)O)=CCS[C@H]12)c1csc(N)n1`
n

Write down the call the test reported for this compound. Item: `O=C1/C(=C\c2cccs2)CCC/C1=C\c1cccs1`
n

* * *

# PROTOCOL_SUMMARY: qHTS assay for small molecule agonists of the p53 signaling pathway (AID 651631); note: nearly all actives have a fitted effect of over 15% in size
# ASSAY_SETUP: HCT-116 p53RE-bla reporter, beta-lactamase FRET ratio, 16 h; series mostly up to 73.3 µM
# Source text: U.S. Tox21 Program National Center for Advancing Translational Sciences [NCATS] NIH Chemical Genomics Center [NCGC] U.S. Environmental Protection Agency [EPA] National Institutes of Environmental Health Sciences [NIEHS] National Toxicology Program [NTP] U.S. Food and Drug Administration [FDA] […] The activation of the reporter gene under culture conditions can be detected by fluorescence intensity. […]
Inconclusive results are not listed. The source made the active and inactive calls. Calls come from the whole dose curve.
Output constraint: value belongs to YES for active, NO for inactive

Write down the call the test reported for this compound. Item: CNCC(O)c1ccc(OC(=O)C(C)(C)C)c(OC(=O)C(C)(C)C)c1 (stereo not drawn)
NO

Write down the call the test reported for this compound. Item: `O=C1c2ccccc2C(=O)C1c1ccc(Cl)cc1`
NO

Write down the call the test reported for this compound. Item: CN1c2c(nc(N)[nH]c2=O)NCC1CNc1ccc(C(=O)NC(CCC(=O)O)C(=O)O)cc1 (stereo not drawn)
NO

Write down the call the test reported for this compound. Item: CCC(C)C(C(=O)OCC[N+](C)(CC)CC)c1ccccc1 (stereo not drawn)
NO

Write down the call the test reported for this compound. Item: `CS(=O)(=O)NC(=O)CCC/C=C\C[C@H]1C(=O)C[C@@H](O)[C@@H]1/C=C/[C@H](O)COc1ccccc1`
NO

Write down the call the test reported for this compound. Item: `O=P(O)(O)C(O)(Cc1cnc2ccccn12)P(=O)(O)O`
NO

Write down the call the test reported for this compound. Item: `CCCCCCCCCCCCCCCCCCCCCC(=O)Nc1ccn([C@@H]2O[C@H](CO)[C@@H](O)[C@@H]2O)c(=O)n1`
YES

Write down the call the test reported for this compound. Item: `CCOC(=O)Cc1cccc(-c2cc(CCCCCCc3ccc(O[C@H]4O[C@H](COC(C)=O)[C@@H](OC(C)=O)[C@H](OC(C)=O)[C@@H]4OC(C)=O)c(-c4cccc(CC(=O)OCC)c4)c3)ccc2O[C@H]2O[C@H](COC(C)=O)[C@@H](OC(C)=O)[C@H](OC(C)=O)[C@@H]2OC(C)=O)c1`
NO

Write down the call the test reported for this compound. Item: `N#Cc1ccc2c(c1)N(CCCN1CCC(O)CC1)c1ccccc1S2`
YES

Write down the call the test reported for this compound. Item: `CNC[C@@H]1CC[C@@H](N)[C@@H](O[C@H]2[C@H](O)[C@@H](O[C@H]3OC[C@](C)(O)[C@H](NC)[C@H]3O)[C@H](N)C[C@@H]2N)O1`
NO

Write down the call the test reported for this compound. Item: `CC(C)(C)CC(C)(C)c1cc(Cc2cc(C(C)(C)CC(C)(C)C)cc(-n3nc4ccccc4n3)c2O)c(O)c(-n2nc3ccccc3n2)c1`
NO

Write down the call the test reported for this compound. Item: `O=S(=O)(O)CCCS(=O)(=O)O`
NO

Write down the call the test reported for this compound. Item: `c1cnc2cc3c(cc2n1)[C@@H]1CNC[C@H]3C1`
NO

Write down the call the test reported for this compound. Item: `O=C(O)c1cccc(/C=C2/C[C@@H]3[C@@H](/C=C/[C@@H](O)C4CCCCC4)[C@H](O)C[C@@H]3O2)c1`
NO

Write down the call the test reported for this compound. Item: `O=C[C@H](O)[C@@H](O)[C@H](O[C@H]1O[C@H](CO)[C@@H](O[C@H]2O[C@H](CO)[C@@H](O)[C@H](O)[C@H]2O)[C@H](O)[C@H]1O)[C@H](O)CO`
NO

Write down the call the test reported for this compound. Item: `CCCCCCCCCCCCCCCCCCOP(=O)([O-])OC1CC[N+](C)(C)CC1`
NO

Write down the call the test reported for this compound. Item: CCCN(CC)C(CC)C(=O)Nc1c(C)cccc1C (stereo not drawn)
NO

Write down the call the test reported for this compound. Item: `CN[C@@H]1CCc2[nH]c3ccc(C(N)=O)cc3c2C1`
NO

* * *

# EXPERIMENTAL_SYSTEM: Aryl hydrocarbon receptor (Homo sapiens) (UniProt P35869)
# Sequence (P35869 whole entry, looked up): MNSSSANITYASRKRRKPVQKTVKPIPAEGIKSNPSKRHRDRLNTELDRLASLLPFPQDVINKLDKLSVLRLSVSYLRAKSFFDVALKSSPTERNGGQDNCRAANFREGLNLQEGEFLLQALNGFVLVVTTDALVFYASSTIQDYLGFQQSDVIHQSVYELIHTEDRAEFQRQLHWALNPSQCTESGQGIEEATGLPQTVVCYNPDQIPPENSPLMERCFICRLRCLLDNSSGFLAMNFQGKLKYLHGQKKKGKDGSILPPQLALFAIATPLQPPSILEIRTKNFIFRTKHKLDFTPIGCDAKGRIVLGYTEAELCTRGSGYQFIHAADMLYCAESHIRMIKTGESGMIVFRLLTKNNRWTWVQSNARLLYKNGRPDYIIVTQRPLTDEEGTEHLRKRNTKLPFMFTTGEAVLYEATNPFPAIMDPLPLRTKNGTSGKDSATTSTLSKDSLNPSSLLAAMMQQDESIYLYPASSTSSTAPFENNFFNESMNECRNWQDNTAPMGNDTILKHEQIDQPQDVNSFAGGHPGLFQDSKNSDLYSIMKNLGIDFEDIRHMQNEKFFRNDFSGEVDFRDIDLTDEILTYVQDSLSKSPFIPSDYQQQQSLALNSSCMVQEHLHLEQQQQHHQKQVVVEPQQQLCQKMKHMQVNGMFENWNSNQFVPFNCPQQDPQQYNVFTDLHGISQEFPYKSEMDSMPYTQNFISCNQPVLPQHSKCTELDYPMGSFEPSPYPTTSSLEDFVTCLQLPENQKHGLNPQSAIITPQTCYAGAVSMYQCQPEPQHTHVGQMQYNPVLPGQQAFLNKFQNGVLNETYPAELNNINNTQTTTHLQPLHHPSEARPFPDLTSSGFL
# PROTOCOL_SUMMARY: qHTS assay to identify small molecule that activate the aryl hydrocarbon receptor (AhR) signaling pathway (AID 743085); note: nearly all actives have a fitted effect of over 15% in size;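 for activation: HG2L7.5c1 human HepG2 liver cells with stably integrated DRE-driven firefly reporter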
# ASSAY_SETUP: HepG2 AhR-luc (HG2L7.5c1), luciferase, 24 h; series mostly up to 70.3 µM
Results filed as inconclusive are left out. Calls of active or inactive are those of the source. Calls come from the whole dose curve; as a rule, active = well fitted activation curve with a large enough effect in the repeat runs; inconclusive = weak or mixed curves; inactive = no such curve, though single readings can be large or run the other way.
Output constraint: value belongs to active, inactive

Write down the call the test reported for this molecule. Item: `O=C(O[C@H]1CN2CCC1CC2)N1CCc2ccccc2[C@@H]1c1ccccc1`
inactive

Write down the call the test reported for this molecule. Item: CNCC(O)c1ccc(OC(=O)C(C)(C)C)c(OC(=O)C(C)(C)C)c1 (stereo not drawn)
inactive

Write down the call the test reported for this molecule. Item: `COC1=C(C(=O)O)N2C(=O)[C@@H](NC(=O)[C@H](N)C3=CCC=CC3)[C@H]2SC1`
inactive

Write down the call the test reported for this molecule. Item: `O=C(/C=C/c1cccc(F)c1)NC1CC1`
inactive

Write down the call the test reported for this molecule. Item: `O=C(O)CCC/C=C\C[C@@H]1[C@@H](/C=C/[C@@H](O)COc2cccc(Cl)c2)[C@H](O)C[C@@H]1O`
inactive

Write down the call the test reported for this molecule. Item: `CC[C@H](C)[C@@H]1NC(=O)[C@H](Cc2ccc(O)cc2)NC(=O)[C@@H](N)CSSC[C@@H](C(=O)N2CCC[C@H]2C(=O)N[C@@H](CC(C)C)C(=O)NCC(N)=O)NC(=O)[C@H](CC(N)=O)NC(=O)[C@H](CCC(N)=O)NC1=O`
inactive

Write down the call the test reported for this molecule. Item: `COC(=O)CCC[N+](C)(C)C`
inactive

Write down the call the test reported for this molecule. Item: `CCC(=O)O[C@@H]1CC(=O)O[C@H](C)C/C=C/C=C/[C@H](O)[C@H](C)C[C@H](CC=O)[C@H](O[C@@H]2O[C@H](C)[C@@H](O[C@H]3C[C@@](C)(O)[C@@H](OC(=O)CC)[C@H](C)O3)[C@H](N(C)C)[C@H]2O)[C@H]1OC`
inactive

Write down the call the test reported for this molecule. Item: `COc1ccccc1N1CCN(CCCC(=O)c2ccc(F)cc2)CC1`
active

Write down the call the test reported for this molecule. Item: `CCC(=O)OCC(=O)[C@@]1(OC(=O)CC)[C@H](C)C[C@H]2[C@H]3[C@H]([C@@H](O)C[C@@]21C)[C@@]1(C)C=CC(=O)C=C1C[C@H]3Cl`
inactive

Write down the call the test reported for this molecule. Item: `N[C@@H](C(=O)N[C@@H]1C(=O)N2C(C(=O)O)=C(Cl)CC[C@H]12)c1ccccc1`
inactive

Write down the call the test reported for this molecule. Item: `C[C@H](O)[C@H](O)[C@H]1CNc2nc(N)[nH]c(=O)c2N1`
inactive

Write down the call the test reported for this molecule. Item: CC#CCC(C)[C@H](O)/C=C/[C@@H]1[C@H]2c3cccc(CCCC(=O)O)c3O[C@H]2C[C@H]1O (stereo partly drawn)
inactive

Write down the call the test reported for this molecule. Item: `CCOc1ccc(N=Nc2ccc(N)cc2N)cc1`
active

Write down the call the test reported for this molecule. Item: `CC(C)(CO)[C@@H](O)C(=O)NCCCC(=O)O`
inactive

Write down the call the test reported for this molecule. Item: `N#Cc1ccc2c(c1)N(CCCN1CCC(O)CC1)c1ccccc1S2`
inactive

Write down the call the test reported for this molecule. Item: `CC1=C(/C=C/C(C)=C/C=C/C(C)=C/C=C/C=C(C)/C=C/C=C(C)/C=C/C2=C(C)C(=O)CCC2(C)C)C(C)(C)CCC1=O`
inactive

Write down the call the test reported for this molecule. Item: Cc1cc(O)c2c(c1)O[C@@]1(C)CC[C@H]3C(C)(C)CCCC34CO[C@@H]2[C@H]41 (stereo partly drawn)
inactive

Write down the call the test reported for this molecule. Item: `CS(=O)(=O)OCCCNCCCOS(C)(=O)=O`
inactive

Write down the call the test reported for this molecule. Item: `NC(=O)Oc1ccc(Cc2ccccc2)cc1`
inactive

Write down the call the test reported for this molecule. Item: `Clc1cc(Cl)c(OCC#CI)cc1Cl`
inactive

Write down the call the test reported for this molecule. Item: CN1CCCC(CN2c3ccccc3Sc3ccccc32)C1 (stereo not drawn)
inactive

Write down the call the test reported for this molecule. Item: `COc1ccc(/C=C/C(=O)OCCC(C)C)cc1`
inactive

Write down the call the test reported for this molecule. Item: `CCC(=O)NS(=O)(=O)c1ccc(-c2c(-c3ccccc3)noc2C)cc1`
inactive

Write down the call the test reported for this molecule. Item: `CCCCCCCCCCCC(=O)N(CCO)CCO`
inactive

Write down the call the test reported for this molecule. Item: `FC(F)(F)C(F)(F)C(F)(F)C(F)(F)C(F)(F)C(F)(F)F`
inactive

Write down the call the test reported for this molecule. Item: C[N+]1(C)CCN(CC(O)(c2ccccc2)C2CCCCC2)CC1 (stereo not drawn)
inactive

Write down the call the test reported for this molecule. Item: `CCN(CC)CCOc1ccccc1OC`
inactive

Write down the call the test reported for this molecule. Item: `CO[C@@H]1[C@@H](O[C@@H]2O[C@H](C)[C@@H](O[C@H]3C[C@@](C)(O)[C@@H](OC(=O)CC(C)C)[C@H](C)O3)[C@H](N(C)C)[C@H]2O)[C@@H](CC=O)C[C@@H](C)[C@@H](O)/C=C/C=C/C[C@@H](C)OC(=O)C[C@H]1O`
inactive

Write down the call the test reported for this molecule. Item: `O=C(O)c1ccc(OCCn2ccnc2)cc1`
inactive

Write down the call the test reported for this molecule. Item: `Nc1ncnc2c1ncn2CCOCP(=O)(O)O`
inactive

Write down the call the test reported for this molecule. Item: `CO/N=C(\C(=O)N[C@@H]1C(=O)N2C(C(=O)O)=C(CSc3nnnn3C)CS[C@H]12)c1csc(N)n1`
inactive

Write down the call the test reported for this molecule. Item: CCC(C)[C@@H](N)C(=O)O (stereo partly drawn)
inactive

Write down the call the test reported for this molecule. Item: `COc1ccc(C[C@@H](C)NC[C@H](O)c2ccc(O)c(NC=O)c2)cc1`
inactive

Write down the call the test reported for this molecule. Item: `COc1cc(C)c(/C=C/C(C)=C/C=C/C(C)=C/C(=O)O)c(C)c1C`
inactive

Write down the call the test reported for this molecule. Item: `CC(=O)Nc1ccc(NC(=S)NC(=O)c2ccc(C(C)(C)C)cc2)cc1`
active

Write down the call the test reported for this molecule. Item: `CCCCC[C@H](O)/C=C/[C@@H]1[C@H]2C/C(=C/CCCC(=O)O)O[C@H]2C[C@H]1O`
inactive

Write down the call the test reported for this molecule. Item: `CC(C)[C@@H]1CC[C@@H](C)C[C@H]1OC(=O)c1ccccc1O`
inactive
